Recorded measurements of Tm, one per entry
assay-method-text: melting temperature; fluorescence melt of hairpins on a sequencing array, two-state fit, raised by 9.35 °C to match UV melts
test-context: sodium 0.088 M
Give the quantity in °C, number only.

Here is how some sequences turned out for Tm.
| sequence-record | readout-unit | value-reported |
| --- | --- | --- |
| GGGTCAACGAAAGTTCCC (((..(((....)))))) | °C | 34.7 |
| GATCCAAGATGGATC ((((((...)))))) | °C | 49 |
| GAGAGAACGAAAGTTCTC (((..(((....)))))) | °C | 52.5 |
| GCACAGCGAAAGCTCTGC (((.(((....))).))) | °C | 40.6 |
| GGGCAAGGAAACTTGTCC ((.((((....)))).)) | °C | 52.3 |
| TGTCTGAAAAGACA (((((....))))) | °C | 47.2 |
| GTCTTAGAAATAAGAC ((((((....)))))) | °C | 43.4 |
| GCCTTGCGAAAGCACCGC ((..(((....)))..)) | °C | 42.6 |

Lookup: Need Tm, item GGCCGGGGAAACCCGGTC (.(((((....))))).)
Found: 67.9

Lookup: Need Tm, item GCGTACGACGC ((((...))))
Found: 53.3

Lookup: Need Tm, item GATCTTACCTAAGATC ((((((....))))))
Found: 45

Lookup: Need Tm, item GGGACCGAAAGGTGTCCC ((((((....)))..)))
Found: 51.3

Lookup: Need Tm, item GCTGTTCCGAAAGGAAGC (((..(((....))))))
Found: 35.1
